Target: T1, hIL-18Rα ECD-Fc fusion protein (human, UniProt Q13478 22-329)
T1 construct: extracellular domain; captured on Protein A sensor
T1 sequence (looked up): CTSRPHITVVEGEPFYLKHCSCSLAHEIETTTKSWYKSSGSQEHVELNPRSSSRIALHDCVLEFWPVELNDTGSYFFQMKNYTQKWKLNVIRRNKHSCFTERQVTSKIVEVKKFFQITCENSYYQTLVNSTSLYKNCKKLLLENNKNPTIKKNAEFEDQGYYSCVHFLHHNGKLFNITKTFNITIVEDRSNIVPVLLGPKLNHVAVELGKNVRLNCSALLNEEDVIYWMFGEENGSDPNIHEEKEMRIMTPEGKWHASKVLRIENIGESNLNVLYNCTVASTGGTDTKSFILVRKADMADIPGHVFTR
Experiment: BLI (Octet RED96), hIL-18Rα ECD-Fc on Protein A sensor
Method: The affinities of IL-18 variant polypeptides for hIL-18Rα were assessed by Biolayer Interferometry (BLI) on Octet RED96 using Protein A sensor coated with hIL-18Rα ECD-Fc fusion protein, and WT hIL-18 was used as a control.
# key: entry, value: koff
// return numeric value only (unit: s⁻¹, not printed)

Guide cases for koff, answers given:
IL-18 variant polypeptide LM4 (ligand, soluble, E. coli-made) YFPKLKSKLSVIRNLNDQVLFIDQGNRPLFEDMTDSDCRDNAPRTIFIISMYKHSYSRGMAVTISVKCEKISTLSCENKIISFKEMNPPDNIKDTKSDIIFFQRSVPGHDNKMQFESSSYEGYFLACEKERDLFKLILKKEDELGDRSIMFTVQNED    0.0169
IL-18 variant polypeptide M29 (ligand) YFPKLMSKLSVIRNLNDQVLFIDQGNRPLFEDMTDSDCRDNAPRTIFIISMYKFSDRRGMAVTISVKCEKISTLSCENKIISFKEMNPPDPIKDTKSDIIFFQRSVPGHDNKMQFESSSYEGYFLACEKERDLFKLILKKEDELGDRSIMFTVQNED    0.0612
IL-18 variant polypeptide M10 (ligand) YFPKLRSKLSVIRNLNDQVLFIDQGNRPLFEDMTDSDCRDNAPRTIFIISMYKQSLWRGMAVTISVKCEKISTLSCENKIISFKEMNPPDSIKDTKSDIIFFQRSVPGHDNKMQFESSSYEGYFLACEKERDLFKLILKKEDELGDRSIMFTVQNED    0.0235
IL-18 variant polypeptide MM5 (ligand, soluble, E. coli-made) YFGKLGSKLSVIRNLNDQVLFIDQGNRPLFEDMTDSDCRDNAPRTIFIISMYKLSTERGMAVTISVKCEKISTLSCENKIISFKEMNPPDGIKDTKSDIIFFQSSVPGHDNKMQFESSSYEGYFLACEKERDLFKLILKKEDELGDRSIMFTVQNED    0.077

Request: Fill in reported koff for this entry: IL-18 variant polypeptide LM2 (ligand, soluble, E. coli-made) YFPKLRSKLSVIRNLNDQVLFIDQGNRPLFEDMTDSDCRDNAPRTIFIISMYKLSGSRGMAVTISVKCEKISTLSCENKIISFKEMNPPDVIKDTKSDIIFFQRSVPGHDNKMQFESSSYEGYFLACEKERDLFKLILKKEDELGDRSIMFTVQNED
Result: 0.052

Request: Fill in reported koff for this entry: IL-18 variant polypeptide M30 (ligand) YFPKLLSKLSVIRNLNDQVLFIDQGNRPLFEDMTDSDCRDNAPRTIFIISMYKHSTVRGMAVTISVKCEKISTLSCENKIISFKEMNPPDSIKDTKSDIIFFQRSVPGHDNKMQFESSSYEGYFLACEKERDLFKLILKKEDELGDRSIMFTVQNED
Result: 0.0389

Request: Fill in reported koff for this entry: IL-18 variant polypeptide LM1 (ligand, soluble, E. coli-made) YFPKLKSKLSVIRNLNDQVLFIDQGNRPLFEDMTDSDCRDNAPRTIFIISMYKGSGARGMAVTISVKCEKISTLSCENKIISFKEMNPPDNIKDTKSDIIFFQRSVPGHDNKMQFESSSYEGYFLACEKERDLFKLILKKEDELGDRSIMFTVQNED
Result: 0.047

Request: Fill in reported koff for this entry: IL-18 variant polypeptide M35 (ligand) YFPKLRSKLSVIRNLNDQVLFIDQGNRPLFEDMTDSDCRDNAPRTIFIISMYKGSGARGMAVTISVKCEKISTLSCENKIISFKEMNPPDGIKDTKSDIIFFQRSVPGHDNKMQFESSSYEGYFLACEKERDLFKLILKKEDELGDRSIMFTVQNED
Result: 0.0156

Request: Fill in reported koff for this entry: IL-18 variant polypeptide M11 (ligand) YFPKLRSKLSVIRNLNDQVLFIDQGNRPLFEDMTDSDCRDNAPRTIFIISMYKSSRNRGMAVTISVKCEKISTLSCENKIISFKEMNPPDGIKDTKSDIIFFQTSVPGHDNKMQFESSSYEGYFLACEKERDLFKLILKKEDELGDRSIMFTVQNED
Result: 0.0189

Request: Fill in reported koff for this entry: IL-18 variant polypeptide M14 (ligand) YFNKLKSKLSVIRNLNDQVLFIDQGNRPLFEDMTDSDCRDNAPRTIFIISMYKPSSSRGMAVTISVKCEKISTLSCENKIISFKEMNPPDRIKDTKSDIIFFQASVPGHDNKMQFESSSYEGYFLACEKERDLFKLILKKEDELGDRSIMFTVQNED
Result: 0.00588

Request: Fill in reported koff for this entry: IL-18 variant polypeptide M38 (ligand) YFPKLSSKLSVIRNLNDQVLFIDQGNRPLFEDMTDSDCRDNAPRTIFIISMYKWSGARGMAVTISVKCEKISTLSCENKIISFKEMNPPDVIKDTKSDIIFFQISVPGHDNKMQFESSSYEGYFLACEKERDLFKLILKKEDELGDRSIMFTVQNED
Result: 0.0334

Request: Fill in reported koff for this entry: IL-18 variant polypeptide M13 (ligand) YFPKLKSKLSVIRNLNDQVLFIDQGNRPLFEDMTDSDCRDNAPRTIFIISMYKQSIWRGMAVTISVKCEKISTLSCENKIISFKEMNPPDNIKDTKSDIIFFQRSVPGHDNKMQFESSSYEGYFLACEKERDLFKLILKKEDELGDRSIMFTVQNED
Result: 0.0038

Request: Fill in reported koff for this entry: IL-18 variant polypeptide M5 (ligand) YFEKLTSKLSVIRNLNDQVLFIDQGNRPLFEDMTDSDCRDNAPRTIFIISMYKWSPWRGMAVTISVKCEKISTLSCENKIISFKEMNPPDVIKDTKSDIIFFQTSVPGHDNKMQFESSSYEGYFLACEKERDLFKLILKKEDELGDRSIMFTVQKED
Result: 0.0149
